Experiment: Binding affinity to DNA (unknown origin) at 0.0625 to 0.5 mM by ethidium bromide dye based agarose gel electrophoresis method
Calls of active or inactive are those of the source. The rule behind the calls is not given here.
MEASURED_METRIC: Activity

COMPOUND: OC(CNCCc1c[nH]c2ccccc12)Cn1c2ccccc2c2ccccc21 (racemic)
MEASURED_RESULT: inactive

COMPOUND: COc1cccc2c1C(=O)c1c(O)c3c(c(O)c1C2=O)C[C@@](O)(C(=O)CO)C[C@@H]3O[C@H]1C[C@H](N)[C@H](O)[C@H](C)O1
MEASURED_RESULT: Active

COMPOUND: CC(C)NCC(O)COC(Cn1c2ccccc2c2ccccc21)Cn1c2ccccc2c2ccccc21 (racemic)
MEASURED_RESULT: inactive

COMPOUND: Cc1cc(Nc2ccc(NC(=O)c3ccc(Nc4ccnc5ccccc45)cc3)cc2)nc(N)n1
MEASURED_RESULT: Active

---

Molecular target: DNA (cytosine-5)-methyltransferase 1 (Mus musculus) (UniProt P13864)
Sequence (P13864 whole entry, the tested form may be a part): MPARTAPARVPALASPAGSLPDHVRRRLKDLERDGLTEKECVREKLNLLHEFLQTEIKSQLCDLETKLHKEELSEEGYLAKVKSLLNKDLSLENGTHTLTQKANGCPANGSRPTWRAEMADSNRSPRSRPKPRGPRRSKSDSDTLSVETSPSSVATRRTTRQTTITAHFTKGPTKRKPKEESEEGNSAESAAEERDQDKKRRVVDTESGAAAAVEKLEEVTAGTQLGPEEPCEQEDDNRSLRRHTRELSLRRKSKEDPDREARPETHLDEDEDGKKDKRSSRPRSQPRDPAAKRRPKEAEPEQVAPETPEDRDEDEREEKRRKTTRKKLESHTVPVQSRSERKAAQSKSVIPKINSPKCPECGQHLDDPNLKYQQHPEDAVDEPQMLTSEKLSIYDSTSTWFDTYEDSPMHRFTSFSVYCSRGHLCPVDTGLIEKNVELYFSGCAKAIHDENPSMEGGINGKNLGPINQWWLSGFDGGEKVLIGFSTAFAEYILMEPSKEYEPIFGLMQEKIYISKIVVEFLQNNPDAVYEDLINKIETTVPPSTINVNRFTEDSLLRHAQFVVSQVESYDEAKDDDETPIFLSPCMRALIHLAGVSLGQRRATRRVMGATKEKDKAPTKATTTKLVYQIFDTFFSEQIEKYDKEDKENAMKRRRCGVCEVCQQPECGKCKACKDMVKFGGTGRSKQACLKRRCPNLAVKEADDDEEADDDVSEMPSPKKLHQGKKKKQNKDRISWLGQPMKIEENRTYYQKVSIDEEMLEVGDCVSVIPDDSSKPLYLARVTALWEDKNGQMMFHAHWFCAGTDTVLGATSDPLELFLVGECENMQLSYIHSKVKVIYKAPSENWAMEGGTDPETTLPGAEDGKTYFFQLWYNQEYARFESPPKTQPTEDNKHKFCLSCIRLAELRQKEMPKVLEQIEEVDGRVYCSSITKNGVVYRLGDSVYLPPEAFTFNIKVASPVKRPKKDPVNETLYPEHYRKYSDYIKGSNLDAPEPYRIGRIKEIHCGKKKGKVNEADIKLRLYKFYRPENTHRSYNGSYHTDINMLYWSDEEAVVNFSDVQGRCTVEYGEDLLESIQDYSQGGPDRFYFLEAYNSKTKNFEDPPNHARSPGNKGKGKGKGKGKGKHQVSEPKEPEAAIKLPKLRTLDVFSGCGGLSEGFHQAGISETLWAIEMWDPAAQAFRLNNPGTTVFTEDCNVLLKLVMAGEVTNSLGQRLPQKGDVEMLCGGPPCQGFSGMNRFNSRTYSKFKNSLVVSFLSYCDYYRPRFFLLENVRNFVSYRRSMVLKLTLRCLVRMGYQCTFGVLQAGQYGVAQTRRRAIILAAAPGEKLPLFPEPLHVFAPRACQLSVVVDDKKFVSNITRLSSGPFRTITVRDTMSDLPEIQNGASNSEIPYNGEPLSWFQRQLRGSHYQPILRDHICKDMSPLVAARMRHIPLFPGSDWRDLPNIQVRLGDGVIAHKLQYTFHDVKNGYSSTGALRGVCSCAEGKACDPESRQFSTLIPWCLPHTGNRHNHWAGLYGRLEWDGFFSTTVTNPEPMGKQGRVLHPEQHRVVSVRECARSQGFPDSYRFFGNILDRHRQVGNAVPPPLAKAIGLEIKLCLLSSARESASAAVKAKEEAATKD
Assay: Inhibition of N-terminal His6-tagged mouse DNMT1 (731 to 1602 residues) expressed in Escherichia coli BL21 (DE3) at 50 uM incubated for 15 mins before addition of [3H]-SAM and poly(dI-dC).poly(dI-dC) by liquid scintillation counting based radioactive methylation assay
molecules and their reported inhibition

MOLECULE: OCCCNCC(O)Cn1c2ccccc2c2ccccc21 (racemic)
SYSTEM_TESTED: DNA (cytosine-5)-methyltransferase 1 (Mus musculus) (UniProt P13864)
inhibition / %: 42.5
--
MOLECULE: OC(CN1CCOCC1)Cn1c2ccccc2c2ccccc21 (racemic)
SYSTEM_TESTED: DNA (cytosine-5)-methyltransferase 1 (Mus musculus) (UniProt P13864)
inhibition / %: -5
--
MOLECULE: OC(CNCC1CCCO1)Cn1c2ccccc2c2ccccc21 (racemic)
SYSTEM_TESTED: DNA (cytosine-5)-methyltransferase 1 (Mus musculus) (UniProt P13864)
inhibition / %: 40.1
--
MOLECULE: Cc1c(C)n(CC(O)CNC2CCCCC2)c2ccccc12 (racemic)
SYSTEM_TESTED: DNA (cytosine-5)-methyltransferase 1 (Mus musculus) (UniProt P13864)
inhibition / %: 2.4
--
MOLECULE: CC(C)NCC(O)COC(Cn1c2ccccc2c2ccccc21)Cn1c2ccccc2c2ccccc21 (racemic)
SYSTEM_TESTED: DNA (cytosine-5)-methyltransferase 1 (Mus musculus) (UniProt P13864)
inhibition / %: 102
--
MOLECULE: OC(CNCCOc1ccccc1)Cn1c2ccccc2c2ccccc21 (racemic)
SYSTEM_TESTED: DNA (cytosine-5)-methyltransferase 1 (Mus musculus) (UniProt P13864)
inhibition / %: 29.7
--
MOLECULE: CNCC(O)Cn1c(C)c(C)c2ccccc21 (racemic)
SYSTEM_TESTED: DNA (cytosine-5)-methyltransferase 1 (Mus musculus) (UniProt P13864)
inhibition / %: 1.1
